# Measurement Protocol: capillary depletion analysis after in situ brain perfusion
# Type: in vivo, mouse
# Measurement Context: male, BALB/c, mouse, whole-brain homogenate (capillary depletion), other: in situ brain perfusion, [3H] ADMA and [14C] Sucrose uptake, homogenate, CONTROL, 10 mins, Balb/c ♂, 5ml/min; mean
Counter-ions that a name gives are not always drawn.
List of Kp at 10 min, 62.5 nM values.
Measurement Name: Kp at 10 min, 62.5 nM

* CN(C)C(N)=NCCC[C@H](N)C(=O)O [ADMA, N^G,N^G-dimethylarginine dihydrochloride] | 0.224
* OC[C@H]1O[C@@](CO)(O[C@H]2O[C@H](CO)[C@@H](O)[C@H](O)[C@H]2O)[C@@H](O)[C@@H]1O [[^14C]-sucrose, reference compound] | 0.0971

###

# Measurement Protocol: capillary depletion analysis after in situ brain perfusion
# Assay type: in vivo, mouse
# Measurement Context: male, BALB/c, mouse, whole-brain homogenate (capillary depletion), other: in situ brain perfusion, Difference (ADMA minus Sucrose), homogenate, CONTROL, 10 mins, Balb/c ♂, 5ml/min; mean
Counter-ions that a name gives are not always drawn.
Measurement Name: Kp at 10 min, 62.5 nM

• CN(C)C(N)=NCCC[C@H](N)C(=O)O [ADMA, N^G,N^G-dimethylarginine dihydrochloride] = 0.127

Attribution: paper PMC11501026
